Measured MIC on Salmonella typhi follows.
The reply should contain only the number, in µg/mL.

Some entries whose results are on file:
compound="N[C@@H](C(=O)N[C@@H]1C(=O)N2C(C(=O)O)=C(Cc3cccc(C(=O)O)c3)CS[C@H]12)c1ccccc1 [XLI]" unit_info=µg/mL recorded_measurement=2.5
compound="NC(=O)N[C@H](Cc1c[nH]c2ccccc12)C(=O)N[C@@H](C(=O)N[C@@H]1C(=O)N2C(C(=O)O)=C(Cc3ccc(C(=O)O)cc3)CS[C@H]12)c1ccccc1 [XXVI]" unit_info=µg/mL recorded_measurement=5

Alright, here's another compound for you.
Exercise: Give the reported MIC for O=C(O)C1=C(Cc2cccc(C(=O)O)c2)CS[C@@H]2[C@H](NC(=O)[C@H](O)c3ccccc3)C(=O)N12 [XLIII] (system: Salmonella typhi).
Solution: 8
